- Target Or Test System: T1, Human TREM2 extracellular domain (ECD), residues 19-131, C-terminally biotinylated, deglycosylated (human, UniProt Q9NZC2 19-131, C-terminally biotinylated; deglycosylated)
- T1 construct: range 19-131; loaded on Superstreptavidin biosensors; also called triggering receptor expressed on myeloid cells 2; Human BLI (deglycosylated)
- T1 sequence (looked up): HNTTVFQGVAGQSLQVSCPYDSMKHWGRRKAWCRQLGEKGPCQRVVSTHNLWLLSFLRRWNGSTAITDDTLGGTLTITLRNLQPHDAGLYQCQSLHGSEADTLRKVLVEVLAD
- Assay Overview: Bio-layer interferometry (Octet), direct binding: biotinylated human TREM2 ECD loaded on Superstreptavidin biosensors, peptide in solution at 0.195 to 12.5 µM (7 traces)
*1 amine or outer side, *2 acyl side, *3 side chain or, on linkers, in order; H or OH if unused. Bridges are numbered along the chain shown (N, C = ends). Where no end group is shown, it is not given here. TATA = O=C(CC[*:1])N1CN(C(=O)CC[*:2])CN(C(=O)CC[*:3])C1
Metric Name: Kd (nM)

ACSEYCFWPFYHCA (linker 2-6-13 via TATA) [BCY16054]; 680
